# system.tested: 14-3-3σ/C-RAF259 (Homo sapiens, UniProt P31947)
# Sequence (P31947 whole entry, other chains not shown): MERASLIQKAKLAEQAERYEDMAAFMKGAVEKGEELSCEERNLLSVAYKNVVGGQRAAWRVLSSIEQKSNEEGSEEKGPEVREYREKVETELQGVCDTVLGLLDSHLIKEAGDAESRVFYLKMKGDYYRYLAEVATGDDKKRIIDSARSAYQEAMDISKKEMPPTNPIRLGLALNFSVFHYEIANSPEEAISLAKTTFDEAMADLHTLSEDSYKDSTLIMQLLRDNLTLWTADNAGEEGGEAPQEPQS
# measurement.protocol: Intact mass spectrometry assay with C-RAF259 phospho-peptide
# Type: binding
# Set-up: full-length for mass spectrometry and fluorescence anisotropy assays; made in house; host or cells: E. coli Rosetta 2(DE3)pLysS (14-3-3σ); peptides from Elim Biopharmaceuticals
# experimental.setup: 1 μM compound, 100 nM 14-3-3σ, 18 µM peptide, 8 h
recorded.metric: % bound, C-RAF259 (11mer), 8h (%)

Some compounds with recorded % bound, C-RAF259 (11mer), 8h:
>>> value_reported("O=C(CCl)NCC1CCN(S(=O)(=O)Cc2ccc(Cl)cc2)CC1")
0.5
>>> value_reported("O=C(CCl)NCc1ccc(NS(=O)(=O)c2ccc(Br)c(F)c2)cc1")
2.9
>>> value_reported("COc1ccc(S(=O)(=O)N2CCC(CNC(=O)CCl)CC2)cc1")
15

A: COc1ccc(S(=O)(=O)N2CCC(CNC(=O)CCl)CC2)cc1F
B: O=C(CCl)NCC1CCN(S(=O)(=O)c2cc(F)c(Br)c(F)c2)CC1
Q: Hey, which is lower on measured % bound, C-RAF259 (11mer), 8h, A or B ? In your reply, give the label of the chosen option.
A: A

---

# system.tested: 14-3-3σ/C-RAF259 (Homo sapiens)
# measurement.protocol: Intact mass spectrometry assay with C-RAF259 phospho-peptide
# Assay type: binding
# Set-up: full-length for mass spectrometry and fluorescence anisotropy assays; made in house; host or cells: E. coli Rosetta 2(DE3)pLysS (14-3-3σ); peptides from Elim Biopharmaceuticals
# experimental.setup: 1 μM compound, 100 nM 14-3-3σ, 18 µM peptide, 16 h
recorded.metric: % bound, C-RAF259 (11mer), 16h (%)

>>> value_reported("O=C(CCl)NCC1CCN(S(=O)(=O)c2ccc(F)cc2)CC1 [Compound 11]")
26
>>> value_reported("O=C(CCl)N1CC2CCC1CC2NS(=O)(=O)c1ccc(Br)c(F)c1 (stereo not drawn) [Compound 61]")
80.9

1: CC1(CNC(=O)CCl)CCN(S(=O)(=O)c2ccc(Br)c(F)c2)CC1 [Compound 46]
2: O=C(CCl)NCC1CCN(S(=O)(=O)c2ccc(F)c(F)c2)CC1 [Compound 28]
3: O=C(CCl)NCC1CCN(S(=O)(=O)c2cc(F)c(Br)c(F)c2)CC1 [Compound 40]
Q: Sort low-to-high on % bound, C-RAF259 (11mer), 16h, please. Thanks in advance for listing the labels in the requested order.
A: 2, 1, 3
(2: 27.5%, 1: 49%, 3: 78.9%)

A: O=C(CCl)NCC1CCN(S(=O)(=O)c2ccccc2F)CC1 [Compound 15]
B: O=C(CCl)NCC1CCN(S(=O)(=O)c2cc(F)c(Br)cc2F)CC1 [Compound 39]
Q: Hey, which is lower on measured % bound, C-RAF259 (11mer), 16h, A or B ? In your reply, give the label of the chosen option.
A: A

1: O=C(CCl)NCC1CCN(S(=O)(=O)c2ccc3c(c2)OCO3)CC1 [Compound 26]
2: O=C(CCl)NCC1CCN(S(=O)(=O)c2ccc(Cl)nc2)CC1 [Compound 14]
Q: Endpoint returns the identifier whose % bound, C-RAF259 (11mer), 16h is numerically larger, either 1 or 2 . In your reply, give the label of the chosen option.
A: 1
(1: 22.6%, 2: 9.9%)
